Provide the reported growth inhibition of each item.
# Protocol description: NCI Yeast Anticancer Drug Screen. Data for the cln2 rad14 strain (AID 165);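 also: 0% = growth equal to vehicle treated cultures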
# Measurement context: S. cerevisiae cln2 rad14 strain, at 50.0 µM, hits give high values
About 79,000 compounds went through this panel and 15% of them were active in at least one assay; those are over-represented in the sample as a whole.
State the answer as a number, implicitly in %.

Query: Which growth inhibition reading was recorded for the compound Cc1cccc(NN)c1 ?
Reply: 30

Query: Which growth inhibition reading was recorded for the compound O=Cc1cccs1 ?
Reply: -14.6

Query: Which growth inhibition reading was recorded for the compound Cc1ccc(S(=O)(=O)N2CCCSCCN(S(=O)(=O)c3ccc(C)cc3)CCCSCC2)cc1 ?
Reply: -9.4

Query: Which growth inhibition reading was recorded for the compound O=C(CSc1nnc(Cc2ccccc2)o1)Nc1ccc(Cl)cc1Cl ?
Reply: -10.7

Query: Which growth inhibition reading was recorded for the compound CC1(C)OC2OC(C3CC3)C(OCc3ccccc3)C2O1 (centres undefined) ?
Reply: -16

Query: Which growth inhibition reading was recorded for the compound O=C1OC(C2OC(=O)C(=O)C2C(=O)c2cccc([N+](=O)[O-])c2)C(C(=O)c2cccc([N+](=O)[O-])c2)C1=O (centres undefined) ?
Reply: -33.6

Query: Which growth inhibition reading was recorded for the compound CC1=c2c(oc3cc(O)c(Nc4c(C)cc(O)cc4O)c(C)c23)=CC(=O)C1=Nc1c(C)cc(O)cc1O ?
Reply: -2.3

Query: Which growth inhibition reading was recorded for the compound COS(=O)(=O)Cc1ccccc1 ?
Reply: -19.2

Query: Which growth inhibition reading was recorded for the compound O=C1NCCS(=O)(=O)N2CCC[C@@H]12 ?
Reply: 21.4

Query: Which growth inhibition reading was recorded for the compound CC(=O)c1ccc(O)c(C=O)c1O ?
Reply: 2.65

Query: Which growth inhibition reading was recorded for the compound CC(O)(c1ccccc1)C1CC1c1ccccc1 (centres undefined) ?
Reply: -17.2

Query: Which growth inhibition reading was recorded for the compound C=CCc1cc(C(=O)C(=O)c2cc(CC=C)c(OC(C)=O)c(OC)c2)cc(OC)c1OC(C)=O ?
Reply: 6.8

Query: Which growth inhibition reading was recorded for the compound CN=C(Nc1cccc(C(F)(F)F)c1)SCc1ccc(N=C=S)cc1 ?
Reply: 10.2

Query: Which growth inhibition reading was recorded for the compound COc1ccccc1-n1on1-c1ccccc1OC ?
Reply: -30.9

Query: Which growth inhibition reading was recorded for the compound N#CCCc1c(-c2ccccc2)nc(N)[nH]c1=O ?
Reply: -38.4

Query: Which growth inhibition reading was recorded for the compound COC1=C(C#N)C(c2ccccc2)CC(N)=N1 (centres undefined) ?
Reply: 2.1

Query: Which growth inhibition reading was recorded for the compound Cc1ccc(S(=O)(=O)c2ccc(C)cc2C(=O)O)cc1 ?
Reply: -9.8

Query: Which growth inhibition reading was recorded for the compound c1cc(-c2nnc(-c3ccncc3)s2)ccn1 ?
Reply: 32.5

Query: Which growth inhibition reading was recorded for the compound C/C(=C\C(=O)c1ccccc1)c1ccccc1 ?
Reply: -16.6

Query: Which growth inhibition reading was recorded for the compound CCSc1cc2c(cc1O)CC[C@@H]1[C@@H]2CC[C@]2(C)[C@@H](O)CC[C@@H]12 ?
Reply: -7.5

Query: Which growth inhibition reading was recorded for the compound O=C(O)c1cc(O)[nH]c(=O)c1 ?
Reply: -48.5

Query: Which growth inhibition reading was recorded for the compound Cc1cccc(CBr)c1-c1c(C)cccc1CBr ?
Reply: -31.1

Query: Which growth inhibition reading was recorded for the compound CCOc1ccc(-n2c(C)c(COC(=O)NC)c(COC(=O)NC)c2C)cc1 ?
Reply: 3.8

Query: Which growth inhibition reading was recorded for the compound Cc1cc(Cl)ccc1NC(N)=O ?
Reply: 22.4

Query: Which growth inhibition reading was recorded for the compound N=C1N=Nc2nc(C(C(=O)c3cccs3)c3nc4n(c3O)C(=N)N=N4)c(O)n21 (centres undefined) ?
Reply: -15.3

Query: Which growth inhibition reading was recorded for the compound C=CCOc1ccc(C2C(C(=O)OCC)C(=O)CC(C)(O)C2C(=O)OCC)cc1OC (centres undefined) ?
Reply: -24

Query: Which growth inhibition reading was recorded for the compound CC1COC(C)(C)O1 (centres undefined) ?
Reply: 0.65

Query: Which growth inhibition reading was recorded for the compound Cc1ccc(S(=O)(=O)OC(c2ccc(Cl)cc2Cl)C2OC(=O)c3ccccc32)cc1 (centres undefined) ?
Reply: 24.7

Query: Which growth inhibition reading was recorded for the compound Nc1nc2c(c(=O)[nH]1)C(c1ccc(Cl)cc1)C=C(c1ccccc1)N2 (centres undefined) ?
Reply: -1.85

Query: Which growth inhibition reading was recorded for the compound CC(C)c1cccc(C(C)C)c1N1C(=O)C(=O)C(c2nc3ccccc3s2)C(=O)C1=O ?
Reply: -10

Query: Which growth inhibition reading was recorded for the compound O=c1[nH]c2ccccc2c(=O)n2cccc12 ?
Reply: -7.5

Query: Which growth inhibition reading was recorded for the compound CC(C)(C)OC(=O)N(CCCCNC(=O)C(F)(F)F)CCCNC(=O)C(F)(F)F ?
Reply: 11.6

Query: Which growth inhibition reading was recorded for the compound O=[N+]([O-])c1ccc(OP(=O)(O)O)cc1 ?
Reply: 20.2

Query: Which growth inhibition reading was recorded for the compound C=CCn1c(SC)nc2c(c1=O)CCCC2 ?
Reply: -14.3

Query: Which growth inhibition reading was recorded for the compound C=CCOCOC(C)C(=O)OCC (centres undefined) ?
Reply: -26.7

Query: Which growth inhibition reading was recorded for the compound CCCCCCCC/C=C\CCCCCCC(F)C(=O)O (centres undefined) ?
Reply: 6.1

Query: Which growth inhibition reading was recorded for the compound COC1OC(CCl)C(Cl)C(Cl)C1O (centres undefined) ?
Reply: -44.2

Query: Which growth inhibition reading was recorded for the compound COC(=O)/C(=N/NC(C)(C)C)C(C(=O)C=C(C)C)C(=O)C(=O)Nc1ccc(Cl)cc1C (centres undefined) ?
Reply: -28.9

Query: Which growth inhibition reading was recorded for the compound Cl[Si]1(Cl)Oc2ccccc2O[Si](Cl)(Cl)Oc2ccccc2O1 ?
Reply: 28.6

Query: Which growth inhibition reading was recorded for the compound CCOC(=O)C1SC(=Nc2ccc(C)c(C)c2)N=C1C (centres undefined) ?
Reply: 19.7

Query: Which growth inhibition reading was recorded for the compound Nc1ncnc(N2CCOCC2)n1 ?
Reply: 0.95

Query: Which growth inhibition reading was recorded for the compound OCC1COC(c2ccc(Cl)cc2)O1 (centres undefined) ?
Reply: -17.9

Query: Which growth inhibition reading was recorded for the compound O=C(O)C1CCCN1/N=C/c1cccc([N+](=O)[O-])c1 (centres undefined) ?
Reply: -5.4

Query: Which growth inhibition reading was recorded for the compound CCOC(CNCc1ccncc1)OCC ?
Reply: 4.9

Query: Which growth inhibition reading was recorded for the compound C=CCOC(=O)C(C#N)C(C)CC(=O)OCC (centres undefined) ?
Reply: -0.35

Query: Which growth inhibition reading was recorded for the compound CNc1ccc(Br)cc1[N+](=O)[O-] ?
Reply: -0.2

Query: Which growth inhibition reading was recorded for the compound c1ccc(C2OC3C4COC(O4)C3O2)cc1 (centres undefined) ?
Reply: -19.1

Query: Which growth inhibition reading was recorded for the compound NC(=O)Cc1c(F)c(F)c(F)c(F)c1F ?
Reply: 8.85

Query: Which growth inhibition reading was recorded for the compound O=C1C=C(Nc2ccccc2C(=O)CC(=O)C(=O)Nc2cccc([N+](=O)[O-])c2)c2ccccc2C1=O ?
Reply: 12.3

###

# Protocol description: NCI Yeast Anticancer Drug Screen. Data for the sgs1 mgt1 strain (AID 161);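 also: 0% = growth of cultures given vehicle only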
# Measurement context: S. cerevisiae sgs1 mgt1 strain, at 50.0 µM, hits give high values
About 79,000 compounds went through this panel and 15% of them were active in at least one assay; those are over-represented in the sample as a whole.
Label rule, in plain words: growth inhibition of 10% and up is t, under 10% is f.

Query: Given the entry Cc1cccc(O)c1O , answer whether its growth inhibition meets or surpasses 10%.
Reply: t

Query: Given the entry NNc1nc(N2CCOCC2)c2[nH]cnc2n1 , answer whether its growth inhibition meets or surpasses 10%.
Reply: t

Query: Given the entry COC1/C=C/OC2(C)Oc3c(C)c(O)c4c(O)c(c(/C=N/OC/C=C(\C)CCC=C(C)C)c(O)c4c3C2=O)NC(=O)C(C)=C/C=C/C(C)C(O)C(C)C(O)C(C)C(OC(C)=O)C1C (configuration not stated) , answer whether its growth inhibition meets or surpasses 10%.
Reply: f

Query: Given the entry CN(Nc1ccnc(=O)[nH]1)c1ccccc1 , answer whether its growth inhibition meets or surpasses 10%.
Reply: f

Query: Given the entry O=C1C=C(O)C(=C/C=C/C=C/c2c(O)cc(O)cc2O)C(O)=C1 , answer whether its growth inhibition meets or surpasses 10%.
Reply: f

Query: Given the entry CCC(=O)c1cc2c(cc1O)CC(C(=O)CC)c1ccccc1-2 (configuration not stated) , answer whether its growth inhibition meets or surpasses 10%.
Reply: t

Query: Given the entry COc1cc(/C=C2\Cc3ccccc3C2=O)cc(OC)c1OC , answer whether its growth inhibition meets or surpasses 10%.
Reply: f

Query: Given the entry Cc1cc(S(=O)(=O)O)ccc1Cl , answer whether its growth inhibition meets or surpasses 10%.
Reply: f

Query: Given the entry Cc1c(Cl)cccc1NC(=O)Nc1ccc(S(N)(=O)=O)cc1 , answer whether its growth inhibition meets or surpasses 10%.
Reply: t

Query: Given the entry CCCC(C)C1(CCC)C(=O)N=C(N)N=C1N (configuration not stated) , answer whether its growth inhibition meets or surpasses 10%.
Reply: f

Query: Given the entry c1cc2[nH]snc2c2cncc12 , answer whether its growth inhibition meets or surpasses 10%.
Reply: f

Query: Given the entry O=c1ccsc(=S)[nH]1 , answer whether its growth inhibition meets or surpasses 10%.
Reply: f
